# Test system: 786-0
# methodSummary: NCI tumour cell line growth inhibition, 48 h
The source made the active and inactive calls. No stated cut-off is given here; in the data, active = GI50 up to about 1.1 µM and inactive = higher.
Kindly supply the reported GI50 values for the records listed here.

Solved cases (5 shown):
O=C(N/N=C(/CCN1CCCC1)CC(c1ccccc1)c1c(O)c2ccccc2oc1=O)c1ccncc1 (configuration not stated): > 100 µM (inactive)
O=C1c2ccc3c4ccccc4n(Cc4ccccc4)c3c2C(=O)N1c1ccccc1: 13.8 µM (inactive)
CC(=O)OC1C(=O)C(O)C(C)OC1O[C@@H]1C[C@@]2(C)[C@@H]3CC=C4[C@@H](C[C@H](O)C(=O)C4(C)C)[C@]3(C)C(=O)C[C@]2(C)[C@H]1[C@@](C)(O)C(=O)/C=C/C(C)(C)O (some centres not stated): 1.53 µM (inactive)
Cc1nc(N)sc1C(=O)/C=C/c1ccc(/C=C/C(=O)c2sc(NC(=O)CCCCCCCCC(=O)Nc3nc(C)c(C(=O)/C=C/c4ccc(/C=C/C(=O)c5sc(N)nc5C)cc4)s3)nc2C)cc1: > 100 µM (inactive)
COC(=O)C1(Cc2ccc3c(c2)CCC3)Cc2ccc3c(c2C1)CCC3 (configuration not stated): 24.5 µM (inactive)

Please state GI50 for every compound in the list that follows.
1. Clc1ccc(CNc2nc3ccccc3nc2-c2cccs2)c(Cl)c1
2. O=C(Nc1ccc2[nH]c(C(=O)N3CC(CCl)c4c3cc([N+](=O)[O-])c3ccccc43)cc2c1)Nc1ccc2[nH]c(C(=O)N3CC(CCl)c4c3cc([N+](=O)[O-])c3ccccc43)cc2c1 (configuration not stated)
3. COc1cc2c(cc1C)NC(=O)/C2=C\c1ccncc1
4. N#Cc1nnc2ccccc2c1N

> 100 µM (inactive)
> 100 µM (inactive)
5.35 µM (inactive)
> 100 µM (inactive)

Please state GI50 for every compound in the list that follows.
1. CC(=O)NC1=C(C)C(=O)c2c(nc3n2CCC3OC(=O)c2ccccc2)C1=O (configuration not stated)
2. C/C(Nc1ccc(F)cc1)=C1/CCOC1=O
3. C=C[C@@]12CCCCC1C/C(=C(/O)OC)C(=O)C2 (some centres not stated)
4. CC12CCC3[C@@H](CC3(C)C)C(O)(CCC1=O)C2 (some centres not stated)
5. COc1cccc2c1OC1c3ccccc3OCC1C2 (configuration not stated)
6. Cc1cn(C2C=CC(COP(=O)(OCC3=CC(=O)c4ccccc4C3=O)N(C)CCCCCl)O2)c(=O)[nH]c1=O (configuration not stated)

["4.3 µM (inactive)", "> 100 µM (inactive)", "> 100 µM (inactive)", "> 100 µM (inactive)", "> 100 µM (inactive)", "12.7 µM (inactive)"]

Please state GI50 for every compound in the list that follows.
1. CC1OC(OC2C(OC(=O)[C@]34CCC(C)(C)CC3C3=CCC5[C@@]6(C)C[C@H](O)[C@H](OC7OC(COC8OC(CO)C(O)C(O)C8O)C(O)C(O)C7O)[C@@](C)(C(=O)O)C6CC[C@@]5(C)C3(C)CC4)OCC(O)C2O)C(O)C(O)C1OC1OCC(O)C(O)C1O (some centres not stated)
2. CCOC(=O)CCC(NC(=O)c1ccc(OCc2nc3ccccc3n3cccc23)cc1)C(=O)OCC (configuration not stated)

["> 100 µM (inactive)", "74.3 µM (inactive)"]

====

# Tested on: HT-29
# methodSummary: NCI tumour cell line growth inhibition, 48 h
Active and inactive are the calls of the source. Cut-off read from the data, not from the text of the source: active = GI50 up to about 1.1 µM and inactive = higher.
readoutKind: GI50

Cn1c(=O)cc(N2CCCC2)[nH]c1=O: > 100 µM (inactive)
CCOC(=O)c1ccc(NCC#CCN2CCCCC2)cc1: > 100 µM (inactive)
COC(=O)[C@H]1C2CC[C@@H]3C45C[C@@H](c6ccoc6)O[C@@H]4O[C@@H](O2)C31CCC5C (stereo partly specified): > 100 µM (inactive)
COc1ccc2c(c1)-c1[nH]c3ccc(OC)cc3c1CC2: 12.3 µM (inactive)
CCOC(=O)NC(Nc1ccc(F)c(F)c1)(C(=O)OCC)C(F)(F)F (stereo unspecified): > 100 µM (inactive)

With those in mind, consider the next compound.
Item under review: O=C1c2ccccc2C(=O)C2NC(CCCCCSSCCCCCC3=NC4C(=O)c5ccccc5C(=O)C4N3)=NC12 (stereo unspecified) . Reported GI50?
> 100 µM (inactive)

====

# Tested on: M19-MEL
# methodSummary: NCI tumour cell line growth inhibition, 48 h
Active and inactive are the calls of the source. Cut-off read from the data, not from the text of the source: active = GI50 up to about 1.1 µM and inactive = higher.
Answer with one of the outcomes true for active, false for inactive

Please review the entries below; each comes with its answer.
COc1ccc(N2C(=O)/C(=C/c3ccc(N(CCC#N)CCC#N)cc3C)N=C2/C=C\c2ccccc2)cc1: false
Cc1nc2c(nc1Cl)nc(Oc1ccc(Cl)cc1)c1ccccc12: false
CCOC(=O)C1=C(O)C(=O)c2ccsc2C1=O: false
Cc1cccc(C)c1NC(=O)CCc1n[nH]c(=S)o1: false
CC(C)c1cccc(C(C)C)c1NC1=CC(=O)C(=O)c2ccccc21: false

Now let's try a different one.
For O=C(NCc1ccc2ccc3cccnc3c2n1)c1ccc[n+](Cc2ccccc2)c1 , what call appears in the results of this test?
false

====

# Test system: SF-539
# methodSummary: NCI tumour cell line growth inhibition, 48 h
Calls of active or inactive are those of the source. Cut-off read from the data, not from the text of the source: active = GI50 up to about 1.1 µM and inactive = higher.
readoutKind: GI50

Solved cases (5 shown):
CC(=O)OC1CC2C(C)(C)C(=O)C=C[C@]2(C)C2CCC3(C)C(c4ccoc4)C(=O)C4OC43[C@]12C (stereo partly drawn): 20.1 µM (inactive)
O=C(Nc1ccc2[nH]c(C(=O)N3CC(CCl)c4c3cc([N+](=O)[O-])c3ccccc43)cc2c1)Nc1ccc2[nH]c(C(=O)N3CC(CCl)c4c3cc([N+](=O)[O-])c3ccccc43)cc2c1 (stereo not drawn): > 100 µM (inactive)
COc1ccccc1N1C(=O)/C(=C\c2cccc(Oc3ccccc3)c2)SC1c1ccccc1 (stereo not drawn): 34.5 µM (inactive)
O=C(/C=C/c1ccccc1)CCN1CCCCC1: 17.8 µM (inactive)
CN(C)C(=S)/N=c1\ssc(=S)n1-c1ccccc1: 16.8 µM (inactive)

Please state GI50 for every compound in the list that follows.
1. Cn1cccc1-c1ccc(-c2ccc(CO)[se]2)[se]1
2. CC1N=C(c2ccccc2)OC1=O (stereo not drawn)
3. N=c1oc2ccccc2cc1C(=O)Nc1ccccn1
4. COc1cccc2c1OC(c1ccc(C#N)cc1)C([N+](=O)[O-])=C2 (stereo not drawn)
5. Clc1ccc(-c2cn3c(nc4ccccc43)c(-c3ccccc3)n2)cc1
6. CC1=C(C)C(=O)C2=C(OCCO2)C1=O
7. O=C(NC(Cc1c[nH]c2ccccc12)C(=O)Nc1ccc(Br)cc1)OCc1ccccc1 (stereo not drawn)

["11.5 µM (inactive)", "> 100 µM (inactive)", "65.6 µM (inactive)", "1.91 µM (inactive)", "22.3 µM (inactive)", "19.9 µM (inactive)", "15.3 µM (inactive)"]

Item under review: CCCc1c(O)nc2ccccc2c1O . Reported GI50?
> 100 µM (inactive)

====

# Test system: KM12
# methodSummary: NCI tumour cell line growth inhibition, 48 h
Active and inactive are the calls of the source. No stated cut-off is given here; in the data, active = GI50 up to about 1.1 µM and inactive = higher.
Kindly supply the reported GI50 values for the records listed here.

Solved cases (8 shown):
[O-][S+]1c2ccccc2N=C(c2ccc3ccccc3c2)CC1c1ccccc1F (configuration not stated): > 100 µM (inactive)
C[C@H]1/C(=C/C(=O)OCCN(C)C)CC[C@H]2[C@H]1C(=O)C[C@H]1C(C)(C)[C@@H](O)CC[C@]21C: > 100 µM (inactive)
O=C1CCCC2=C1CC1=C(CCCC1=O)N2c1cccc([N+](=O)[O-])c1: > 100 µM (inactive)
CCn1c(CCCc2nc3c(=O)n(C)c(=O)n(C)c3[nH]2)nc2c1c(=O)n(C)c(=O)n2C: > 100 µM (inactive)
CCOC(=O)C1=C(O)C(=O)c2ccsc2C1=O: > 100 µM (inactive)
Cn1cc(S(=O)(=O)NC(=O)Nc2ccc(Cl)cc2)c(=O)c2ccc(F)cc21: 47.6 µM (inactive)
O=C(Oc1cncc(Cl)c1)c1cc2ccccc2sc1=O: 40.9 µM (inactive)
O=[N+]([O-])C1=Cc2c(O)ccc(O)c2C2OC=CC12 (configuration not stated): 16.4 µM (inactive)

Please state GI50 for every molecule in the list that follows.
1. CCOc1cc2cnc3c4cc(OC)c(OC)cc4ccc3c2cc1OC
2. COc1c(Cl)cc(NC(=S)C#N)cc1Cl

1: 46.9 µM (inactive); 2: 30.4 µM (inactive)

====

# Test system: HCT-116
# methodSummary: NCI tumour cell line growth inhibition, 48 h
Calls of active or inactive are those of the source. Rule as the data show it: active = GI50 up to about 1.1 µM and inactive = higher.
Answer with one of the outcomes true = active, false = inactive

Please review the entries below; each comes with its answer.
O=C(NCc1ccc2ccc3cccnc3c2n1)c1ccc[n+](Cc2ccccc2)c1: false
COc1ccc(/N=N/C(=N/NC(=O)c2ccccc2)c2ccc(N(CCC#N)CCC#N)cc2C)cc1: false
N#CC(CCN1CCC(Nc2ccccc2)(c2nnnn2C2CCCCC2)CC1)(c1ccccc1)c1ccccc1: false
COc1ccc(-c2cc(=O)c3c(OC)c(OC)c(OC)c(OC)c3o2)c(OC)c1: false
O=c1[nH]nc(Nc2ccc(Cl)cc2)c2nnn(-c3ccc([N+](=O)[O-])cc3)c12: false

For O=C(OCCN=c1c2ccccc2ccc2ccccc12)c1ccc([N+](=O)[O-])cc1 , what call appears in the results of this test?
false

For O=C(O)C1(c2ccccc2)CCCNCC1 (centres undefined) , what call appears in the results of this test?
false

For O=C(O)c1c[nH]c2c(ccc3ncccc32)c1=O , what call appears in the results of this test?
false

For C=C1C(=O)[C@@]23CC[C@@H]4[C@@]5(C)CCC[C@@]4(OC5=O)[C@@]2(C)CC[C@@H]1C3 , what call appears in the results of this test?
false

For O=C(Nc1ccc(Cl)cc1)NS(=O)(=O)c1coc2cc(F)ccc2c1=O , what call appears in the results of this test?
false

For COc1ccc(/C=C2\S/C(=N/Nc3nc(-c4ccccc4)cs3)NC2=O)cc1OC , what call appears in the results of this test?
false
